test system: Vero; test: Cytotoxicity against african green monkey Vero cells after 72 hrs by MTT assay; type: cell-based; details: Chlorocebus sabaeus
Quick list: IC50 per entry.
Quick note: give the figure in µg/mL, leave out the unit.

• COc1ccc(/C=N/Nc2cc(C)nc3cc4c(cc23)OCO4)c2ccccc12 = 0.24

Query :: Endpoint output: IC50 of Cc1cc(N/N=C/c2ccc3c(c2)OCO3)c2cc3c(cc2n1)OCO3 . Value?
Result :: 0.22

Query :: Endpoint output: IC50 of COc1cccc2c(N/N=C/c3ccc4ccccc4n3)ccnc12 . Value?
Result :: 1.68

Query :: Endpoint output: IC50 of COc1ccc2c(N/N=C/c3ccc(O)cc3)ccnc2c1 . Value?
Result :: 3.66

Query :: Endpoint output: IC50 of COc1ccc2cc(/C=N/Nc3ccnc4cc(OC)ccc34)ccc2c1 . Value?
Result :: 0.211

Hey, just so you know, these numbers are from ChEMBL document CHEMBL1153497.
